Molecular target: Protein cereblon/Androgen receptor (Homo sapiens, UniProt P10275+Q96SW2)
Sequence (P10275 whole entry, looked up): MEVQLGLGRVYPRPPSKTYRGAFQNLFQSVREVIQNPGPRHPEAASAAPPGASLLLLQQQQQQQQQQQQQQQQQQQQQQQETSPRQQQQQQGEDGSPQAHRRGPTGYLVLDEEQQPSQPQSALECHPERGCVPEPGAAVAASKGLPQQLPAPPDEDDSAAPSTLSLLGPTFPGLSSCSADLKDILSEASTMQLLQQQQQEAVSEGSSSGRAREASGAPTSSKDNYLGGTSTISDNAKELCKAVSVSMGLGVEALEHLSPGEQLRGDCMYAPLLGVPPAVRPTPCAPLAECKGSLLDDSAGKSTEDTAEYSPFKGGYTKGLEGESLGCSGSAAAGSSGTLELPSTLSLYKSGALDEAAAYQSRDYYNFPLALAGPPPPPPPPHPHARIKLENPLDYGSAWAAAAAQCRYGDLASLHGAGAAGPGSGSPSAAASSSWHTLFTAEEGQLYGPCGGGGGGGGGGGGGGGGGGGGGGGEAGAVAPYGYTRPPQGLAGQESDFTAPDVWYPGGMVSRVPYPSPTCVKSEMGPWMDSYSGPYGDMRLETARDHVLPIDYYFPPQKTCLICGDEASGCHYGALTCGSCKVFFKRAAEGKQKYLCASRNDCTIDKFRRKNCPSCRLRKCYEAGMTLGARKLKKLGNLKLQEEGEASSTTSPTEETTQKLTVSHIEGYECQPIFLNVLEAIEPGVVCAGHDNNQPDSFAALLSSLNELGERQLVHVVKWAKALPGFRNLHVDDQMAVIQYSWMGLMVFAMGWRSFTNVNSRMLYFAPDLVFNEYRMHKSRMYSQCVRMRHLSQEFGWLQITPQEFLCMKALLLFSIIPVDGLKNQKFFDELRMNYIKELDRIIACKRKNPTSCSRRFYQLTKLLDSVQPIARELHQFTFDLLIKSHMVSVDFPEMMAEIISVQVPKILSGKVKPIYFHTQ
Sequence (Q96SW2 whole entry, looked up): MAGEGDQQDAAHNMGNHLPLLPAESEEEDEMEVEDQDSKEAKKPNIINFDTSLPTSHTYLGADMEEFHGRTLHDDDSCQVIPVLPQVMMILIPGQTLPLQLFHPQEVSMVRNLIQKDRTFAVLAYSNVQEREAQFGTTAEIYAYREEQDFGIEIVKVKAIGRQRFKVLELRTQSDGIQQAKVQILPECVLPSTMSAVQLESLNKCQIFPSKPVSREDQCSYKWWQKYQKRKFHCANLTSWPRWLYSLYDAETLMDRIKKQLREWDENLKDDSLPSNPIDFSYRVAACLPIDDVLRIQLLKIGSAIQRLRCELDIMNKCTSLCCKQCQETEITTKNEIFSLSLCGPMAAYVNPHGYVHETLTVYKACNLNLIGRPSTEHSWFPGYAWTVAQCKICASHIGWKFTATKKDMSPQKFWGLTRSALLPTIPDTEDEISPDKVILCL
Test: Protac activity at CRBN/AR in human LNCaP cells assessed as AR degradation at 10 uM by Western blotting analysis relative to control
Type: cell-based
The reader will find reported Activity values listed item by item below.
Please state the figure in %; there is no need to write the unit.

Would you please look over these solved cases?
CC1(C)[C@H](NC(=O)c2ccc(N3CCN(C4CC5(CCN(C(=O)C6CN(c7ccc8nnn(C9CCC(=O)NC9=O)c(=O)c8c7)C6)CC5)C4)CC3)cc2)C(C)(C)[C@H]1Oc1ccc(C#N)c(Cl)c1 (stereo partly drawn) : 0
CC1(C)[C@H](NC(=O)c2ccc(N3CCN(CC4CCN(C(=O)C5CN(c6ccc7nnn(C8CCC(=O)NC8=O)c(=O)c7c6)C5)CC4)CC3)cc2)C(C)(C)[C@H]1Oc1ccc(C#N)c(Cl)c1 (stereo partly drawn) : 83

Exercise: Find the measured Activity of CC1(C)[C@H](NC(=O)c2ccc(N3CCN(CC4CCN(C(=O)COc5ccc6nnn(C7CCC(=O)NC7=O)c(=O)c6c5)CC4)CC3)cc2)C(C)(C)[C@H]1Oc1ccc(C#N)c(Cl)c1 (stereo partly drawn) with Protein cereblon/Androgen receptor (Homo sapiens, UniProt P10275+Q96SW2) as test system.
Key: 51

###

Assay: AUCt in ICR mouse at 5 mg/kg, ip by LC-MS/MS analysis
Assay type: ADME, organism-based
Design: dose 5 mg/kg
Details: in vivo
Collected AUCt values appear next to each entry.
Write the number in ng·h/mL without appending the unit.

CC1(C)[C@H](NC(=O)c2ccc(N3CCN(CCOC4CCN(c5ccc6nnn(C7CCC(=O)NC7=O)c(=O)c6c5)CC4)CC3)cc2)C(C)(C)[C@H]1Oc1ccc(C#N)c(Cl)c1 (some centres undefined) : 10700
CC1(C)[C@H](NC(=O)c2ccc(N3CCN(CCOC4CCN(C(=O)C5CN(c6ccc7nnn(C8CCC(=O)NC8=O)c(=O)c7c6)C5)CC4)CC3)cc2)C(C)(C)[C@H]1Oc1ccc(C#N)c(Cl)c1 (some centres undefined) : 7490
CC1(C)[C@H](NC(=O)c2ccc(N3CCN(C4CC5(CCN(C(=O)C6CCN(c7ccc8nnn(C9CCC(=O)NC9=O)c(=O)c8c7)CC6)CC5)C4)CC3)cc2)C(C)(C)[C@H]1Oc1ccc(C#N)c(Cl)c1 (some centres undefined) : 1720

Now look at this one.
Exercise: Using the record for CC1(C)[C@H](NC(=O)c2ccc(N3CCN(CC4CCN(C(=O)C5CN(c6ccc7nnn(C8CCC(=O)NC8=O)c(=O)c7c6)C5)CC4)CC3)cc2)C(C)(C)[C@H]1Oc1ccc(C#N)c(Cl)c1 (some centres undefined) , state its measured AUCt.
Key: 24200

###

Assay: AUCt in ICR mouse at 30 mg/kg, po by LC-MS/MS analysis
Type: ADME, organism-based
Parameters: dose 30 mg/kg
Settings: in vivo
Reported values of AUCt for individual entries
API: value field is a number in ng·h/mL; no unit string.

CC1(C)[C@H](NC(=O)c2ccc(N3CCN(CCOC4CCN(C(=O)C5CN(c6ccc7nnn(C8CCC(=O)NC8=O)c(=O)c7c6)C5)CC4)CC3)cc2)C(C)(C)[C@H]1Oc1ccc(C#N)c(Cl)c1 (some centres not stated) : 150

Okay, next one:
Exercise: Please give the documented AUCt of CC1(C)[C@H](NC(=O)c2ccc(N3CCN(CC4CCN(C(=O)C5CN(c6ccc7nnn(C8CCC(=O)NC8=O)c(=O)c7c6)C5)CC4)CC3)cc2)C(C)(C)[C@H]1Oc1ccc(C#N)c(Cl)c1 (some centres not stated)
Key: 440

###

Each item that follows carries a reported Activity.
Biological target: Protein cereblon/Androgen receptor (Homo sapiens, UniProt P10275+Q96SW2)
Assay: Protac activity at CRBN/AR in human LNCaP cells assessed as AR degradation at 10 uM by Western blotting analysis relative to control
Format: cell-based
// return numeric value only (unit: %, not printed)

Please review the following examples before continuing.
CC1(C)[C@H](NC(=O)c2ccc(N3CCN(C4CC5(CCN(c6ccc7nnn(C8CCC(=O)NC8=O)c(=O)c7c6)CC5)C4)CC3)cc2)C(C)(C)[C@H]1Oc1ccc(C#N)c(Cl)c1 (stereo not given in full) : 81
CC1(C)[C@H](NC(=O)c2ccc(N3CCN(CCOC4CCN(C(=O)C5CN(c6ccc7nnn(C8CCC(=O)NC8=O)c(=O)c7c6)C5)CC4)CC3)cc2)C(C)(C)[C@H]1Oc1ccc(C#N)c(Cl)c1 (stereo not given in full) : 90
CC1(C)[C@H](NC(=O)c2ccc(N3CCN(CCOC4CCN(C(=O)COc5ccc6nnn(C7CCC(=O)NC7=O)c(=O)c6c5)CC4)CC3)cc2)C(C)(C)[C@H]1Oc1ccc(C#N)c(Cl)c1 (stereo not given in full) : 94
CC1(C)[C@H](NC(=O)c2ccc(N3CCN(CCC4CCN(C(=O)C5CN(c6ccc7nnn(C8CCC(=O)NC8=O)c(=O)c7c6)C5)CC4)CC3)cc2)C(C)(C)[C@H]1Oc1ccc(C#N)c(Cl)c1 (stereo not given in full) : 96
CC1(C)[C@H](NC(=O)c2ccc(N3CCN(CC4CCN(C(=O)CNc5ccc6nnn(C7CCC(=O)NC7=O)c(=O)c6c5)CC4)CC3)cc2)C(C)(C)[C@H]1Oc1ccc(C#N)c(Cl)c1 (stereo not given in full) : 35
CC1(C)[C@H](NC(=O)c2ccc(N3CCN(CCOC4CCN(c5ccc6nnn(C7CCC(=O)NC7=O)c(=O)c6c5)CC4)CC3)cc2)C(C)(C)[C@H]1Oc1ccc(C#N)c(Cl)c1 (stereo not given in full) : 87

Okay, now this compound:
Exercise: Give me measured Activity, please, for this compound: CC1(C)[C@H](NC(=O)c2ccc(N3CCN(CC4CCN(C(=O)C5CCN(c6ccc7nnn(C8CCC(=O)NC8=O)c(=O)c7c6)CC5)CC4)CC3)cc2)C(C)(C)[C@H]1Oc1ccc(C#N)c(Cl)c1 (stereo not given in full)
Key: 94

###

Assay: Half life in ICR mouse at 5 mg/kg, iv by LC-MS/MS analysis
Type: ADME, organism-based
Details: in vivo
Listed here are compounds together with their documented half-life.
// note: answer is a bare numeric in min

Below: 3 compounds and their reported half-life.
CC1(C)[C@H](NC(=O)c2ccc(N3CCN(CCOC4CCN(C(=O)C5CN(c6ccc7nnn(C8CCC(=O)NC8=O)c(=O)c7c6)C5)CC4)CC3)cc2)C(C)(C)[C@H]1Oc1ccc(C#N)c(Cl)c1 (some centres undefined) : 261
CC1(C)[C@H](NC(=O)c2ccc(N3CCN(C4CC5(CCN(C(=O)C6CCN(c7ccc8nnn(C9CCC(=O)NC9=O)c(=O)c8c7)CC6)CC5)C4)CC3)cc2)C(C)(C)[C@H]1Oc1ccc(C#N)c(Cl)c1 (some centres undefined) : 497
CC1(C)[C@H](NC(=O)c2ccc(N3CCN(CCOC4CCN(c5ccc6nnn(C7CCC(=O)NC7=O)c(=O)c6c5)CC4)CC3)cc2)C(C)(C)[C@H]1Oc1ccc(C#N)c(Cl)c1 (some centres undefined) : 281

Now let's try a different one.
Exercise: Look up half-life of CC1(C)[C@H](NC(=O)c2ccc(N3CCN(CC4CCN(C(=O)C5CN(c6ccc7nnn(C8CCC(=O)NC8=O)c(=O)c7c6)C5)CC4)CC3)cc2)C(C)(C)[C@H]1Oc1ccc(C#N)c(Cl)c1 (some centres undefined) and report it.
Key: 269

###

Recorded Activity by entry
Biological target: Protein cereblon/Androgen receptor (Homo sapiens, UniProt P10275+Q96SW2)
Test: Protac activity at CRBN/AR in human LNCaP cells assessed as AR degradation at 10 uM by Western blotting analysis relative to control
Type: cell-based
Your answer should be a number followed by the unit of measure.

A selection of reference data follows.
CC1(C)[C@H](NC(=O)c2ccc(N3CCN(C4CC5(CCN(c6cccc7nnn(C8CCC(=O)NC8=O)c(=O)c67)CC5)C4)CC3)cc2)C(C)(C)[C@H]1Oc1ccc(C#N)c(Cl)c1 (stereo not given in full) : 71%
CC1(C)[C@H](NC(=O)c2ccc(N3CCN(CCOC4CCN(C(=O)CNc5ccc6nnn(C7CCC(=O)NC7=O)c(=O)c6c5)CC4)CC3)cc2)C(C)(C)[C@H]1Oc1ccc(C#N)c(Cl)c1 (stereo not given in full) : 88%

Exercise: Fill in Activity for record CC1(C)[C@H](NC(=O)c2ccc(N3CCN(CC4CCN(c5cccc6nnn(C7CCC(=O)NC7=O)c(=O)c56)CC4)CC3)cc2)C(C)(C)[C@H]1Oc1ccc(C#N)c(Cl)c1 (stereo not given in full)
Key: 78%

Exercise: Return value of Activity for input CC1(C)[C@H](NC(=O)c2ccc(N3CCN(CCC4CCN(c5cccc6nnn(C7CCC(=O)NC7=O)c(=O)c56)CC4)CC3)cc2)C(C)(C)[C@H]1Oc1ccc(C#N)c(Cl)c1 (stereo not given in full) , no commentary.
Key: 90%

Exercise: // Input: CC1(C)[C@H](NC(=O)c2ccc(N3CCN(C4CC5(CCN(C(=O)CNc6ccc7nnn(C8CCC(=O)NC8=O)c(=O)c7c6)CC5)C4)CC3)cc2)C(C)(C)[C@H]1Oc1ccc(C#N)c(Cl)c1 (stereo not given in full) . Output its Activity only.
Key: 39%
